Values were extracted from patent EP0007294A2.

System: chloroform-induced ventricular arrhythmias
Protocol text: Chloroform-induced ventricular arrhythmias (fibrillation) in mice, intraperitoneal dose
Measurement setup: mouse, in vivo, ip, 100 mg/kg
So I've got a bunch of molecules here, and I need their Number of Animals LRR values.
No unit in the answer, only the number.

Need Number of Animals LRR, item COCCc1ccc(OCC(O)CNCCc2ccccc2)cc1 (stereo not shown) [Ex. 1]
0

Consider the molecule COCCc1ccc(OCC(O)CNCCc2ccc(O)cc2)cc1 (stereo not shown) [Ex. 2] and give its measured Number of Animals LRR.
0

Look up Number of Animals LRR for this molecule: CCN(CC)CC(=O)Nc1c(C)cccc1C [Lidocaine]
10

Which Number of Animals LRR is listed for COC(=O)NCCc1ccc(OCC(O)CNC(C)C)cc1 (stereo not shown) [Pamatolol] ?
0

====

Protocol text: Conscious dogs with ligation of a coronary artery according to Harris: ectopics and convulsions
Type: in vivo
Measurement setup: dog, in vivo, iv
Assay readout: TD50 (mg/kg)
Numeric only. Scale: mg/kg

TD50 for COCCc1ccc(OCC(O)CNCCc2ccc(O)cc2)cc1 (stereo not drawn) [Ex. 2] ?
8

Data request, read-out TD50, for COCc1ccc(OCC(O)CNCCCCc2ccccc2)cc1 (stereo not drawn) [Ex. 8]
8

# TD50 lookup, item COCc1ccc(OCC(O)CNCc2ccccc2)cc1 (stereo not drawn) [Ex. 6]
14

What does the record list as TD50 for COCCc1ccc(OCC(O)CNCCCCc2ccc(OC)c(OC)c2)cc1 (stereo not drawn) [Ex. 15] ?
6

Requested read-out: TD50. Entry: COCCc1ccc(OCC(O)CNCc2ccccc2)cc1 (stereo not drawn) [Ex. 9]
8

====

For each entry below, report its TD50 at 20 min value.
Protocol text: Alternative chloroform test on mice: ventricular tachycardia inhibition and ataxia
Format: in vivo
Measurement setup: mouse, in vivo; sc.; mice, observed for 20 min; read-out: Ataxia ED50

I have this molecule here, CC(C)NCC(O)COc1cccc2ccccc12 (centres unmarked) , and I need its recorded TD50 at 20 min.
> 1 mg/kg

Quick one: TD50 at 20 min for CC(C)NC[C@@H](O)COc1cccc2ccccc12 ?
~30 mg/kg

What does the data say about its TD50 at 20 min? Entry: COCCc1ccc(OCC(O)CNCCOc2ccccc2)cc1 (centres unmarked)
> 12 mg/kg

Need TD50 at 20 min of CC(=O)Nc1ccc(OCC(O)CNC(C)C)cc1 (centres unmarked) [Practolol, reference compound] , thanks.
> 50 mg/kg

Given the molecule COCCc1ccc(OCC(O)CNCCCCc2ccccc2)cc1 (centres unmarked) , what is its reported TD50 at 20 min?
> 50 mg/kg

====

System: chloroform-induced ventricular arrhythmias
Protocol text: Chloroform-induced ventricular arrhythmias (fibrillation) in mice, intraperitoneal dose
Measurement setup: mouse, in vivo, ip, 100 mg/kg
Assay readout: Number of Animals Convulsive
# answer = number (no unit)

// returns reported Number of Animals Convulsive for input COCCc1ccc(OCC(O)CNCCc2ccc(O)cc2)cc1 (stereo not shown)
0

Form field: reported Number of Animals Convulsive of CCN(CC)CC(=O)Nc1c(C)cccc1C
10

Which Number of Animals Convulsive value belongs to COCCc1ccc(OCC(O)CNCCc2ccccc2)cc1 (stereo not shown) ?
1

Would you kindly share the measured Number of Animals Convulsive for COC(=O)NCCc1ccc(OCC(O)CNC(C)C)cc1 (stereo not shown) ?
0
